System: NCI-H322M
Assay: relative viability (nuclei count vs DMSO), 5 days (fraction); higher = more cells survive
Details: first compound 0.8 µM
quantity_measured: relative viability

| compound | quantity_measured | result_value |
| --- | --- | --- |
| CCCCCCCCCCCC1=C(O)C(=O)C=C(O)C1=O [Embelin] + O=C(c1cc(Cc2n[nH]c(=O)c3ccccc23)ccc1F)N1CCN(C(=O)C2CC2)CC1 [Olaparib] (partner 8 µM) | relative viability | 0.617 |
| CCCCCCCCCCCC1=C(O)C(=O)C=C(O)C1=O [Embelin] + C[C@]1(O)C[C@@H](c2nc(-c3ccc4ccc(-c5ccccc5)nc4c3)c3c(N)nccn32)C1 [Linsitinib] (partner 1 µM) | relative viability | 1.08 |
| CCCCCCCCCCCC1=C(O)C(=O)C=C(O)C1=O [Embelin] + C[C@@H](Oc1cc(-c2cnn(C3CCNCC3)c2)cnc1N)c1c(Cl)ccc(F)c1Cl [Crizotinib] (partner 1 µM) | relative viability | 1.22 |
| CCCCCCCCCCCC1=C(O)C(=O)C=C(O)C1=O [Embelin] + Nc1ncn([C@H]2C[C@H](O)[C@@H](CO)O2)c(=O)n1 [Decitabine] (partner 2 µM) | relative viability | 0.729 |
| CCCCCCCCCCCC1=C(O)C(=O)C=C(O)C1=O [Embelin] + CC(C)C[C@H](NC(=O)[C@H](Cc1ccccc1)NC(=O)c1cnccn1)B(O)O [Bortezomib] (partner 0.002 µM) | relative viability | 1.34 |

----------
Test system: NCI-H2087
Experiment: relative viability (nuclei count vs DMSO), 5 days (fraction); higher = more cells survive
Details: first compound 4 µM

| compound | relative viability |
| --- | --- |
| Clc1ccc(Nc2nnc(Cc3ccncc3)c3ccccc23)cc1 [Vatalanib] + CS(=O)(=O)CCNCc1ccc(-c2ccc3ncnc(Nc4ccc(OCc5cccc(F)c5)c(Cl)c4)c3c2)o1 [Lapatinib] (partner 2 µM) | 1.12 |
| C[C@@H]1CN(CC(=O)Nc2ccc3c(c2)Cc2cccc(-c4cc(=O)cc(N5CCOCC5)o4)c2S3)C[C@H](C)O1 + CS(=O)(=O)CCNCc1ccc(-c2ccc3ncnc(Nc4ccc(OCc5cccc(F)c5)c(Cl)c4)c3c2)o1 [Lapatinib] (partner 2 µM) | 0.798 |
| COc1cc(N2CCC(C(N)=O)CC2)ccc1Nc1nc(N)c(Cl)c(Nc2ccccc2S(=O)(=O)C(C)C)n1 [HG-5-88-01] + N=C(N)NC(=N)NCCc1ccccc1 [Phenformin] (partner 250 µM) | 0.319 |
| Clc1ccc(Nc2nnc(Cc3ccncc3)c3ccccc23)cc1 [Vatalanib] + CC(C)C[C@H](NC(=O)[C@H](Cc1ccccc1)NC(=O)c1cnccn1)B(O)O [Bortezomib] (partner 0.002 µM) | 0.753 |
| COc1cc(N2CCC(C(N)=O)CC2)ccc1Nc1nc(N)c(Cl)c(Nc2ccccc2S(=O)(=O)C(C)C)n1 [HG-5-88-01] + NC(=O)Nc1cc(-c2cccc(F)c2)sc1C(=O)N[C@H]1CCCNC1 [AZD7762] (partner 0.2 µM) | 1.17 |
| Clc1ccc(Nc2nnc(Cc3ccncc3)c3ccccc23)cc1 [Vatalanib] + CC(=O)c1c(C)c2cnc(Nc3ccc(N4CCNCC4)cn3)nc2n(C2CCCC2)c1=O [Palbociclib] (partner 0.5 µM) | 0.22 |
| Clc1ccc(Nc2nnc(Cc3ccncc3)c3ccccc23)cc1 [Vatalanib] + NC(=O)Nc1cc(-c2cccc(F)c2)sc1C(=O)N[C@H]1CCCNC1 [AZD7762] (partner 0.2 µM) | 1.15 |
